Assay overview: Displacement of [3H]-UDP from chimpanzee P2Y14 receptor expressed in HEK293 cells
Format: cell-based, Pan troglodytes
Reported Ki values follow for various molecules
State the answer as a number, implicitly in µM.

Problem: Answer with the recorded Ki of O=C(O)c1cc(-c2ccc([C@@H](O)C(F)(F)F)cc2)c2ccc(-c3ccc(C(F)(F)F)cc3)cc2c1 only.
Solution: 0.01

Problem: Answer with the recorded Ki of Cc1cccc(C)c1COc1ccc2c(OCc3ccccc3)cc(C(=O)O)cc2c1 only.
Solution: 0.021

Problem: Answer with the recorded Ki of O=C(O)c1cc(-c2ccccc2)c2ccc(Oc3ccccc3)cc2c1 only.
Solution: 1.5

Problem: Answer with the recorded Ki of CS(=O)(=O)c1ccc(-c2cc(C(=O)O)cc3cc(-c4ccc(C(F)(F)F)cc4)ccc23)cc1 only.
Solution: 0.007

Problem: Answer with the recorded Ki of COc1ccc2c(-c3ccccc3)cc(C(=O)O)cc2c1 only.
Solution: 4

Problem: Answer with the recorded Ki of O=C(O)c1cc2cc(-c3ccc(OC(F)(F)F)cc3)ccc2c(-c2ccsc2)c1O only.
Solution: 0.17

Problem: Answer with the recorded Ki of O=C(O)c1cc(-c2cscc2C(O)(C(F)(F)F)C(F)(F)F)c2ccc(-c3ccc(OC(F)(F)F)cc3)cc2c1 only.
Solution: 0.054

Problem: Answer with the recorded Ki of O=C(O)c1cc(-c2ccc(C(O)C(F)(F)F)cc2)c2ccc(-c3ccc(C(F)(F)F)cc3)cc2c1 (centres undefined) only.
Solution: 0.014

Problem: Answer with the recorded Ki of Cc1cc(F)cc(C)c1COc1ccc2c(-c3ccsc3)cc(C(=O)O)cc2c1 only.
Solution: 0.014

Data origin, for the record: ChEMBL document CHEMBL1773017
